# Target Or Test System: kinase domain protein of RC kinase (Homo sapiens)
# Sequence (Q56UN5 1061-1324 limits assumed): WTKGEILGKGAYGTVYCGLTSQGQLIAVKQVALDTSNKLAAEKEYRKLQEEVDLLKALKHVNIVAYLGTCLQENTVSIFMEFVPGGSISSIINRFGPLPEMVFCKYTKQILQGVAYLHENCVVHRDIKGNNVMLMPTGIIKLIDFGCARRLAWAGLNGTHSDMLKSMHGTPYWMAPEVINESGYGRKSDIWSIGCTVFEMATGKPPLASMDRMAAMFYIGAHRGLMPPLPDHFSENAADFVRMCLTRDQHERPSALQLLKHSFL
# Assay Explanation: Enzymatic assay for kinase inhibitory activity (Crebtide substrate, LANCE read-out)
# Type: biochemical
# Protocol Conditions: compound at 1 μM
Item-by-item account of inhibition at 1 µM
Measured Quantity: inhibition at 1 µM

- N#Cc1c(Nc2cccc(Cl)c2)n[nH]c1/N=C/c1cc(F)cc2c1OCOC2: 5 to 20%
- N#Cc1c(Nc2cccc(Cl)c2)n[nH]c1/N=C/c1c[nH]nc1-c1ccc(F)cc1: ≤ 5%
- NC(=O)c1c(Nc2cccc(Cl)c2)n[nH]c1/N=C/c1cccn1S(=O)(=O)c1ccccc1: 20 to 50%
- NC(=O)c1c(Nc2ccc(Cl)cc2)n[nH]c1/N=C/c1ccccc1: 5 to 20%
- COc1ccccc1/C=N/c1[nH]nc(Nc2ccccc2)c1C#N: 5 to 20%
- CS(=O)(=O)c1ccc(/C=N/c2[nH]nc(Nc3cccc(Cl)c3)c2C(N)=O)cc1: ≤ 5%
- NC(=O)c1c(Nc2cccc(Cl)c2)n[nH]c1/N=C/c1ccc(CO)o1: ≥ 50%
- NC(=O)c1c(Nc2cccc(Cl)c2)n[nH]c1/N=C/c1cc[nH]c1: ≥ 50%
- N#Cc1c(Nc2cccc(Cl)c2)n[nH]c1/N=C/c1ccc2snnc2c1: ≤ 5%
- N#Cc1c(Nc2ccc(Cl)cc2)n[nH]c1/N=C/c1ccc(Cl)cc1: ≤ 5%
- N#Cc1c(NC2CCCCC2)n[nH]c1/N=C/c1ccc(O)cc1: ≤ 5%
- N#Cc1c(Nc2cccc(Cl)c2)n[nH]c1/N=C/c1ccc(-n2cnc3ccccc32)cc1: 20 to 50%
- N#Cc1c(Nc2cccc(Cl)c2)n[nH]c1/N=C/c1ccc(-n2cncn2)cc1: ≤ 5%
- NC(=O)c1c(Nc2cccnc2)n[nH]c1/N=C/c1ccc(O)cc1: ≥ 50%
- NC(=O)c1c(Nc2ccc([N+](=O)[O-])cc2)n[nH]c1/N=C/c1ccccc1: 5 to 20%
- NC(=O)c1c(Nc2cccc(Cl)c2)n[nH]c1/N=C/c1cccc(OCCO)c1: 20 to 50%
- NC(=O)c1c(Nc2ccc(Cl)cc2)n[nH]c1/N=C/c1ccc(Cl)cc1: ≤ 5%
